Every entry's value here was drawn from patent US8389526B2.

System: MET-amplified gastric cancer cell line GTL-16
Experiment: GTL-16 proliferation assay (MTS)
Format: cell-based
Settings: Homo sapiens, GTL-16 cells, 72 h incubation
pIC50: −log10 of the molar value.
pIC50 for assorted molecules

{"Molecule": "CC(=O)N1CCN(c2ccc3ncc(Cc4c(F)cc5ncccc5c4F)n3n2)CC1", "pIC50": 7.19}
{"Molecule": "O=C1CN(c2ccc3ncc(Cc4c(F)cc5ncccc5c4F)n3n2)CCN1", "pIC50": 7.82}
{"Molecule": "CC(=O)N1CCN(c2ccc3ncc(C(C)c4ccc5ncccc5c4F)n3n2)CC1 (racemic)", "pIC50": 6.77}
{"Molecule": "CC(c1c(F)cc2ncccc2c1F)c1cnc2ccc(N3CCN(C4CCCC4)C(=O)C3)nn12 (racemic)", "pIC50": 7.68}

---

pIC50 for assorted molecules
Molecular target: c-Met (Homo sapiens, UniProt P08581)
Construct: adapted to measure the phosphorylation of endogenous cellular proteins in cell lysates; endogenous in cells
Sequence (P08581 25-1390): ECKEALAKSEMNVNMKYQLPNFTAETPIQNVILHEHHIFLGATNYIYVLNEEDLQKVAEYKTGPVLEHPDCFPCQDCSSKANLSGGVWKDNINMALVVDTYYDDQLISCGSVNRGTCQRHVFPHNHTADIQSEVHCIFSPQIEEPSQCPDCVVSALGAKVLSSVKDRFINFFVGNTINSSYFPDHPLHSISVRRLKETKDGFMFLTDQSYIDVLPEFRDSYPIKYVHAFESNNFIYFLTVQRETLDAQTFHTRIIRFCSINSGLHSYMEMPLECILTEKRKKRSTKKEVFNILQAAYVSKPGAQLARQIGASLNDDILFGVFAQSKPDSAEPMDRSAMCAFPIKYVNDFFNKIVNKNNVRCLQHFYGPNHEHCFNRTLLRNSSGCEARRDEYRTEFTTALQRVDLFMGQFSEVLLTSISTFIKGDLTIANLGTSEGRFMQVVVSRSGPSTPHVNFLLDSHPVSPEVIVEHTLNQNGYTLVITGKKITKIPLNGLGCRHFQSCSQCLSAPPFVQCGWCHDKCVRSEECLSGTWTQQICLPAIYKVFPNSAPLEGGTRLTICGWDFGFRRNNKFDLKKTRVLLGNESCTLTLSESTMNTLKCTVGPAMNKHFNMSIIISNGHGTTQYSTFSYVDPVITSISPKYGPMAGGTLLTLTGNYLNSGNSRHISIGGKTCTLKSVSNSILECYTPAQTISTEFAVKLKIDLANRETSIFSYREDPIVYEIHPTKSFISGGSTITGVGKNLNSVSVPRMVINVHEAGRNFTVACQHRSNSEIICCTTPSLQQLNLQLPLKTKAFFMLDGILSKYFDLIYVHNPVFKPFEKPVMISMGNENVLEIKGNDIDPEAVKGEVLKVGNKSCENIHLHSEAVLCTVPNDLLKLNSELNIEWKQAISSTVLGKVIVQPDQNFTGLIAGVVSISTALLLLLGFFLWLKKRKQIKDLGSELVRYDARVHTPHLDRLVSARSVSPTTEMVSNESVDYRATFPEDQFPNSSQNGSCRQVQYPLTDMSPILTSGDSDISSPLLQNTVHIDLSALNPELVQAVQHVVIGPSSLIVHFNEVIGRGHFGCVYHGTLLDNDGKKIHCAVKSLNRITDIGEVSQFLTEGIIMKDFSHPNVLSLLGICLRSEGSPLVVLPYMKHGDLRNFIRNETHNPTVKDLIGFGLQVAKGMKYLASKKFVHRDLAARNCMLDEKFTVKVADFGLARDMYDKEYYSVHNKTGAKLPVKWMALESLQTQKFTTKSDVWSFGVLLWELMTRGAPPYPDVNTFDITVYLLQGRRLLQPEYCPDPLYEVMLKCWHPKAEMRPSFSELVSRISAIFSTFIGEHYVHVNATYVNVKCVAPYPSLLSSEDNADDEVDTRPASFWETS
Test: GTL-16 c-Met autophosphorylation measured by AlphaScreen detection
Conditions: GTL-16 cells, 1 h incubation, AlphaScreen p-c-Met; read-out: GTL-16 IC50 c-Met phosphorylation
pIC50: −log10 of the molar value.
Measured attribute: pIC50

{"Molecule": "CC(c1c(F)cc2ncccc2c1F)c1cnc2ccc(N3CCNC(=O)C3)nn12 (racemic)", "Measured attribute": "pIC50", "Modifier": ">", "Numeric readout": 8.52}
{"Molecule": "C[C@@H](c1c(F)cc2c(cnn2C)c1F)c1cnc2ccc(N3CCNC(=O)C3)nn12", "Measured attribute": "pIC50", "Modifier": "=", "Numeric readout": 8.66}
{"Molecule": "CC(c1cc2cnn(C)c2cc1F)c1cnc2ccc(N3CCNC(=O)C3)nn12 (racemic)", "Measured attribute": "pIC50", "Modifier": "=", "Numeric readout": 8.52}
{"Molecule": "CN1CCN(c2ccc3ncc(Cc4c(F)cc5ncccc5c4F)n3n2)CC1", "Measured attribute": "pIC50", "Modifier": "=", "Numeric readout": 8.05}

---

System: MET-amplified gastric cancer cell line GTL-16
Test: GTL-16 proliferation assay (MTS)
Assay type: cell-based
Settings: Homo sapiens, GTL-16 cells, 72 h incubation
Measured attribute: IC50 (nM)

{"Compound": "CC1CN(c2ccc3ncc(C(C)c4c(F)cc5ncccc5c4F)n3n2)CC(=O)N1 (racemic)", "Measured attribute": "IC50", "Units of measure": "nM", "Numeric readout": 9.8}
{"Compound": "CC(c1c(F)cc2c(cnn2C)c1F)c1cnc2ccc(N3CCN(C)C(=O)C3)nn12 (racemic)", "Measured attribute": "IC50", "Units of measure": "nM", "Numeric readout": 29}
{"Compound": "CC(c1c(F)cc2c(cnn2C(C)C)c1F)c1cnc2ccc(N3CCN(C)C(=O)C3)nn12 (racemic)", "Measured attribute": "IC50", "Units of measure": "nM", "Numeric readout": 49}
{"Compound": "C[C@@H](c1c(F)cc2ncccc2c1F)c1cnc2ccc(N3CCN(C(N)=O)CC3)nn12", "Measured attribute": "IC50", "Units of measure": "nM", "Numeric readout": 15}

---

Target: c-Met receptor tyrosine kinase, GST-c-Met(969-1390) (Homo sapiens, UniProt P08581)
Please respond with YES when measured IC50 is strictly beneath 10 nM, and with NO in all other cases.

{"Compound": "CC(c1cc2cccnc2cc1F)c1cnc2ccc(N3CCNC(=O)C3)nn12 (racemic)", "Label value": "NO"}
{"Compound": "CC(c1c(F)cc2ncccc2c1F)c1cnc2ccc(N3CCNC(=O)C3)nn12 (racemic)", "Label value": "YES"}
{"Compound": "C[C@@H](c1c(F)cc2c(cnn2C)c1F)c1cnc2ccc(N3CCN(C)C(=O)C3)nn12", "Label value": "YES"}
{"Compound": "CC(c1c(F)cc2ncccc2c1F)c1cnc2ccc(N3CCNCC3)nn12 (racemic)", "Label value": "YES"}
{"Compound": "COC(=O)N1CCN(c2ccc3ncc(C(C)c4c(F)cc5ncccc5c4F)n3n2)CC1 (racemic)", "Label value": "YES"}
{"Compound": "CC(=O)N1CCN(c2ccc3ncc([C@@H](C)c4c(F)cc5ncccc5c4F)n3n2)CC1", "Label value": "YES"}
{"Compound": "COC(=O)N1CCN(c2ccc3ncc(Cc4c(F)cc5ncccc5c4F)n3n2)CC1", "Label value": "NO"}
{"Compound": "CC(c1c(F)cc2ncccc2c1F)c1cnc2ccc(N3CCN(C=O)CC3)nn12 (racemic)", "Label value": "YES"}
{"Compound": "O=C1CN(c2ccc3ncc(Cc4ccc5ncccc5c4F)n3n2)CCN1", "Label value": "NO"}
{"Compound": "CC(c1cc2cnn(C)c2cc1F)c1cnc2ccc(N3CCNC(=O)C3)nn12 (racemic)", "Label value": "NO"}
{"Compound": "CC(c1ccc2ncccc2c1F)c1cnc2ccc(N3CCNC(=O)C3)nn12 (racemic)", "Label value": "NO"}
{"Compound": "CC(c1c(F)cc2ncccc2c1F)c1cnc2ccc(N3CCNC(=O)C3C)nn12 (racemic)", "Label value": "YES"}
{"Compound": "CC(c1c(F)cc2c(cnn2C(C)C)c1F)c1cnc2ccc(N3CCN(C)C(=O)C3)nn12 (racemic)", "Label value": "NO"}
{"Compound": "C[C@@H](c1c(F)cc2ncccc2c1F)c1cnc2ccc(N3CCNC(=O)[C@H]3C)nn12", "Label value": "YES"}
{"Compound": "Fc1cc2ncccc2c(F)c1Cc1cnc2ccc(N3CCNCC3)nn12", "Label value": "YES"}
{"Compound": "C[C@@H](c1c(F)cc2ncccc2c1F)c1cnc2ccc(N3CCN(C)C(=O)C3)nn12", "Label value": "YES"}

---

pIC50 for assorted compounds
Molecular target: c-Met (Homo sapiens)
Construct: adapted to measure the phosphorylation of endogenous cellular proteins in cell lysates; endogenous in cells
Assay: GTL-16 c-Met autophosphorylation measured by AlphaScreen detection
Settings: GTL-16 cells, 1 h incubation, AlphaScreen p-c-Met; read-out: GTL-16 IC50 c-Met phosphorylation
pIC50: −log10 of the molar value.
Measured attribute: pIC50

{"Compound": "CC(=O)N1CCN(c2ccc3ncc(C(C)c4ccc5ncccc5c4F)n3n2)CC1 (racemic) [Example 48]", "Modifier": "=", "Numeric readout": 7.46}
{"Compound": "CC(c1c(F)cc2ncccc2c1F)c1cnc2ccc(N3CCNCC3)nn12 (racemic) [Example 6]", "Modifier": "=", "Numeric readout": 8.52}
{"Compound": "CC(c1c(F)cc2ncccc2c1F)c1cnc2ccc(N3CCN(C)C(=O)C3)nn12 (racemic) [Example 1]", "Modifier": ">", "Numeric readout": 8.52}
{"Compound": "Fc1cc2ncccc2c(F)c1Cc1cnc2ccc(N3CCNCC3)nn12 [Example 32]", "Modifier": ">", "Numeric readout": 8.52}
{"Compound": "CC(c1ccc2ncccc2c1F)c1cnc2ccc(N3CCNC(=O)C3)nn12 (racemic) [Example 47]", "Modifier": "=", "Numeric readout": 8.26}
{"Compound": "CC(=O)N1CCN(c2ccc3ncc(C(C)c4c(F)cc5ncccc5c4F)n3n2)CC1 (racemic) [Example 10]", "Modifier": ">", "Numeric readout": 8.52}
{"Compound": "CC(c1c(F)cc2ncccc2c1F)c1cnc2ccc(N3CCN(C(=O)C(F)(F)F)CC3)nn12 (racemic) [Example 17]", "Modifier": "=", "Numeric readout": 7.85}
{"Compound": "Cn1ncc2c(F)c(Cc3cnc4ccc(N5CCNC(=O)C5)nn34)c(F)cc21 [Example 54]", "Modifier": ">", "Numeric readout": 8.52}
{"Compound": "CC(c1cc2cccnc2cc1F)c1cnc2ccc(N3CCNC(=O)C3)nn12 (racemic) [Example 41]", "Modifier": ">", "Numeric readout": 8.52}
{"Compound": "C[C@@H](c1c(F)cc2ncccc2c1F)c1cnc2ccc(N3CCN(C=O)CC3)nn12 [Example 13]", "Modifier": "=", "Numeric readout": 8.60}
{"Compound": "CC(c1c(F)cc2ncccc2c1F)c1cnc2ccc(N3CCN(C)CC3)nn12 (racemic) [Example 8]", "Modifier": ">", "Numeric readout": 8.52}
{"Compound": "CC(=O)N1CCN(c2ccc3ncc([C@@H](C)c4c(F)cc5c(cnn5C)c4F)n3n2)CC1 [Example 53]", "Modifier": "=", "Numeric readout": 8.36}
{"Compound": "C[C@@H](c1cc2cnn(C)c2cc1F)c1cnc2ccc(N3CCNC(=O)C3)nn12 [Example 28]", "Modifier": "=", "Numeric readout": 7.96}
{"Compound": "C[C@@H](c1c(F)cc2c(cnn2C)c1F)c1cnc2ccc(N3CCN(C)C(=O)C3)nn12 [Example 50]", "Modifier": "=", "Numeric readout": 8.57}
{"Compound": "CC(c1c(F)cc2c(cnn2C)c1F)c1cnc2ccc(N3CCN(C)C(=O)C3)nn12 (racemic) [Example 49]", "Modifier": "=", "Numeric readout": 8.19}
{"Compound": "C[C@@H](c1c(F)cc2ncccc2c1F)c1cnc2ccc(N3CCNC(=O)[C@@H]3C)nn12 [Example 60]", "Modifier": "=", "Numeric readout": 8.64}
{"Compound": "CC(c1c(F)cc2ncccc2c1F)c1cnc2ccc(N3CCN(C)C(=O)C3C)nn12 (racemic) [Example 21]", "Modifier": ">", "Numeric readout": 8.52}
